Documented Dose.FC.LYZ.S across a set of compounds
# System: ISC-enriched organoids
# assay_procedure: Primary screen, 384-well 2.5-D organoid differentiation (ENR+CD, 6 days): carbachol-induced lysozyme secretion (LYZ.S)
# Type: cell-based, murine
# condition_details: Dose 2.00 uM; primary screen, FC vs plate median
Give the value; after it, write the unit.

Please review the following examples before continuing.
>  <compound>
CC(=O)O[C@H]1C[C@@H]2CC[C@@H]3[C@H](CC[C@@]4(C)[C@H]3C[C@H]([N+]3(C)CCCCC3)[C@@H]4OC(C)=O)[C@@]2(C)C[C@@H]1[N+]1(C)CCCCC1.[Br-].[Br-] [Pancuronium dibromide]

>  <test_value>
0.099 log 2 fold change

$$$$
>  <compound>
COc1ccc(CNCc2cccc3ccccc23)cc1.Cl [ML133 HCl]

>  <test_value>
0.087 log 2 fold change

$$$$
>  <compound>
Cc1cnc(NC(=O)Nc2cc(Br)c(C)cc2OC[C@@H]2CNCCO2)cn1 [LY2603618]

>  <test_value>
−0.269 log 2 fold change

$$$$

# input Dear colleague, please send me the reported Dose.FC.LYZ.S for C/C(=N\NC(=S)N1CCC1)c1ccccn1 [NSC 319726] when you can.
# output −0.248 log 2 fold change
